Molecular target: human mGluR5a receptor (Homo sapiens)
Construct: cDNA subcloned into pcDNA3.1(-)
Sequence (P41594 21-1180 isoform P41594-2 limits assumed): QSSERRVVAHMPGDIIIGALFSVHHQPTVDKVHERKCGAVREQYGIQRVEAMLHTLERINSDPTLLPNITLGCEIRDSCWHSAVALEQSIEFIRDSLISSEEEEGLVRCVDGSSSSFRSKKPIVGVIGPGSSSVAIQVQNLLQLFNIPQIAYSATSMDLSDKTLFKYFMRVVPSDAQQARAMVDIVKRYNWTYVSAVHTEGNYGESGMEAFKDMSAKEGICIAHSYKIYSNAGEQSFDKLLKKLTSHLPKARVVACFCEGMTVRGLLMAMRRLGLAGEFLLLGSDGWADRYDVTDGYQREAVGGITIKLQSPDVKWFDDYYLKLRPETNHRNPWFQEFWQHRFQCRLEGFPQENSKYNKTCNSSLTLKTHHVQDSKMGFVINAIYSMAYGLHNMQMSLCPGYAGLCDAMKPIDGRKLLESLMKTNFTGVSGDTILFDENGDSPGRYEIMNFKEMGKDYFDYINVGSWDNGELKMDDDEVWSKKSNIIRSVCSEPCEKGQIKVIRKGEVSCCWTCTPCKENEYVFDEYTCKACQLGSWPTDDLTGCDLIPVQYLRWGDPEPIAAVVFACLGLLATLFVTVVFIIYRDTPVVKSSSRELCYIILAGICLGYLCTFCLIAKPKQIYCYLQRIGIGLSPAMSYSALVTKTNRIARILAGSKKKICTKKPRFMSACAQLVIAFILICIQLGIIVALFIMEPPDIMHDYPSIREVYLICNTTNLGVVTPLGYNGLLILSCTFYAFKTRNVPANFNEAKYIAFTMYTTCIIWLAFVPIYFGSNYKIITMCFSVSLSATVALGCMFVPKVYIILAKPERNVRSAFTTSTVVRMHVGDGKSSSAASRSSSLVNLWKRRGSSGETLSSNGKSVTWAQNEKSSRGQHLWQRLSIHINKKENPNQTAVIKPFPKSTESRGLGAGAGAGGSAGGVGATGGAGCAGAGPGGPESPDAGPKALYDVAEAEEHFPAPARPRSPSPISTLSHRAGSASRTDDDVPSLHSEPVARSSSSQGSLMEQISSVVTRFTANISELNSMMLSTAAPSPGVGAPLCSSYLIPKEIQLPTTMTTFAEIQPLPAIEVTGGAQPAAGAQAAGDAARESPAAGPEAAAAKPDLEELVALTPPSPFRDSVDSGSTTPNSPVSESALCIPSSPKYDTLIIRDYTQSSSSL
Assay: Cell-based functional Ca2+ mobilization assay (FDSS), potentiation of glutamate EC20 response
Conditions: HEK cells transfected with human mGluR5 (H10H or H12H); in presence of EC20 glutamate
property: pEC50

For this molecule ( `COc1cc(N2CCn3nc(COc4ccccc4)cc3C2=O)ncn1` ), measured pEC50 is 6.59

For this molecule ( `O=C1c2cc(COc3ccc(F)cc3)nn2CCN1c1ccc(F)cc1` ), measured pEC50 is 6.98

For this molecule ( `Cc1ccnc(OCc2cc3n(n2)CCN(c2ccc(F)cc2)C3=O)c1` ), measured pEC50 is 6.45

For this molecule ( `Cc1cccc(N2CCn3nc(COc4ccccn4)cc3C2=O)c1` ), measured pEC50 is 6.39

For this molecule ( `O=C1c2cc(COc3ccccc3)nn2CCN1c1cccc(C2CC2)n1` ), measured pEC50 is 7.03

====

property: melting point (°C)

Before answering, review these 4 worked examples.
For this molecule ( CN(C)c1ccc(N2CCn3nc(COc4ccccc4)cc3C2=O)nc1 [Example 287] ), measured melting point is 164.8

For this molecule ( COc1cc(C)nc(N2CCn3nc(COc4ccccc4)cc3C2=O)n1 [Example 99] ), measured melting point is 183.7

For this molecule ( CC1CN(c2ccc(F)cc2)C(=O)c2cc(COc3cccc(C#N)c3)nn21 (stereo not drawn) [Example 241] ), measured melting point is 110.2

For this molecule ( Cc1cc(N2CCn3nc(COc4ccccc4)cc3C2=O)ncc1F [Example 72] ), measured melting point is 134.7

[A] Cc1cnc(C)c(N2CCn3nc(COc4ccccc4)cc3C2=O)n1 [Example 120]
[B] Cc1nc(N2CC(C)n3nc(COc4ccccc4)cc3C2=O)ccc1F (stereo not drawn) [Example 134]
Data request: Which has the higher melting point, A or B ? The response must carry the label of the picked entry.
Data returned: A
(A: 141.7 °C, B: 87.4 °C)

====

Target: human mGluR5a receptor (Homo sapiens)
Construct: cDNA subcloned into pcDNA3.1(-)
Assay: Cell-based functional Ca2+ mobilization assay (FDSS), potentiation of glutamate EC20 response
Settings: maximum % effect in concentration-response curve, as percent of response to maximally effective glutamate
property: Emax (%)

For this compound ( `COc1nc(N2CCn3nc(COc4ccccc4)cc3C2=O)ncc1C` ), measured Emax (%) is 68

For this compound ( `COc1cccnc1N1CCn2nc(COc3ccccc3)cc2C1=O` ), measured Emax (%) is 48

For this compound ( `O=C1c2cc(COc3ccc(F)cc3)nn2CCN1c1ccc(F)cc1` ), measured Emax (%) is 71

For this compound ( `CCOc1ccccc1N1CCn2nc(COc3ccccc3)cc2C1=O` ), measured Emax (%) is 67

[P] O=C1c2cc(COc3cccnc3)nn2CCN1CC1CC1
[Q] COc1nccnc1N1CCn2nc(COc3ccccc3)cc2C1=O
Data request: // compare: P vs Q , metric Emax (%), want the smaller The response must carry the label of the picked entry.
Data returned: P

====

Target: human mGluR5a receptor (Homo sapiens)
Construct: cDNA subcloned into pcDNA3.1(-)
Test: Cell-based functional Ca2+ mobilization assay (FDSS), potentiation of glutamate EC20 response
Details: HEK cells transfected with human mGluR5 (H10H or H12H); in presence of EC20 glutamate
Description: Human embryonic kidney (HEK) cells transfected with rat mGluR5 were plated in clear bottom assay plates for assay in a Functional Drug Screening System (FDSS). […] After establishment of a fluorescence baseline for twelve seconds, the compounds of the present invention were added to the cells, and the response in cells was measured. […] Five minutes later, an mGluR5 agonist (e.g., glutamate, 3,5-dihydroxyphenylglycine, or quisqualate) was added to the cells, and the response of the cells was measured. […]
property: pEC50

For this compound ( `COc1nc(N2CCn3nc(COc4ccc(F)cc4)cc3C2=O)ncc1C` ), measured pEC50 is 6.78

For this compound ( Cc1cccc(OCc2cc3n(n2)CC(C)N(c2ccc(F)cc2)C3=O)c1 (stereo not drawn) ), measured pEC50 is 7.05

For this compound ( `COc1cncnc1N1CCn2nc(COc3ccccc3)cc2C1=O` ), measured pEC50 is 5.69

For this compound ( CC1Cn2nc(COc3ccccn3)cc2C(=O)N1c1ccc(F)cc1 (stereo not drawn) ), measured pEC50 is 6.23

For this compound ( `Cc1ccc(N2CCn3nc(COc4ccccc4)cc3C2=O)cc1F` ), measured pEC50 is 7.27

For this compound ( `Cc1nccc(N2CCn3nc(COc4ccccc4)cc3C2=O)n1` ), measured pEC50 is 6.29

For this compound ( CC1CN(c2ccc(F)cc2)C(=O)c2cc(COc3ccc(F)cc3)nn21 (single isomer, unassigned) ), measured pEC50 is 6.87
